experiment: qHTS assay to identify small molecule agonists of the farnesoid-X-receptor (FXR) signaling pathway - cell viability counter screen (AID 743218); conditions: FXR-bla HEK293T viability, CellTiter-Glo luminescence, 16 h; series mostly up to 62.6 µM; note: % is set by controls: 0 for no effect and ±100 for the full control effect; nearly all actives have a fitted effect of over 45% in size
Inconclusive results are not listed. Calls of active or inactive are those of the source. Calls come from the whole dose curve; as a rule, active = well fitted cell-killing curve with a large enough effect in the repeat runs; inconclusive = weak or mixed curves, or effect the other way; inactive = no such curve, though single readings can be large or run the other way.
value type: viability change, negative = cytotoxic

Some solved entries appear below for comparison.
> print(dat)
                                   molecule  endpoint.result
1                      CCCCCCCCCCCCCCCCCC#N         inactive
2                        [O]=[Mo](=[O])=[O]         inactive
3  CCOC(CN1CCN(CC(C)C(=O)c2ccccc2)CC1)c1ccccc1 (configuration not stated)         inactive
4  CO[C@@]1(NC(=O)Cc2cccs2)C(=O)N2C(C(=O)O)=C(COC(N)=O)CS[C@@H]21         inactive
5                    CC(C)=CCC/C(C)=C/COC=O         inactive
6                            CCCc1ccc(O)cc1         inactive

get_value(item= O=NN(CCCl)C(=O)NC1CCCCC1 , readout=viability change, negative = cytotoxic) returns inactive

###

assay: qHTS assay to identify small molecule agonists of the retinoic acid receptor (RAR) signaling pathway (AID 1159553); conditions: C3RL4 RARE luciferase reporter, agonist, 6 h; series mostly up to 73.3 µM; note: % is set by controls: 0 for no effect and ±100 for the full control effect
Results filed as inconclusive are left out. Activity calls are given as the source filed them. The call rests on the fitted dose curve; in most records, active means well fitted activation curve with a large enough effect in the repeat runs; inconclusive means weak or mixed curves, or effect the other way; inactive means no such curve, though single readings can be large or run the other way.
value type: activation

Some solved entries appear below for comparison.
> print(dat)
                                   compound                endpoint.result
1                      CC(C)COC(=O)c1ccccc1                       inactive
2  COc1cc2c(cc1OC)CN(C(=O)[C@H](C)N[C@@H](CCc1ccccc1)C(=O)O)[C@H](C(=O)O)C2                       inactive
3                     COC(=O)c1ccccc1C(=O)O                       inactive
4                           Cc1ccccc1C(N)=O                       inactive
5                     CC(C)CCOC(=O)c1ccccc1                       inactive
6          COc1ccc2c(c1)c1c3n2CCN(C)C3=NCC1                       inactive
7                                       CCO                       inactive
8            O=C1c2ccccc2C(=O)c2cc(Cl)ccc21  2.57% [at 8.36 µM] (inactive)

get_value(item= CC(C)OC(=O)OCOP(=O)(CO[C@H](C)Cn1cnc2c(N)ncnc21)OCOC(=O)OC(C)C , readout=activation) returns inactive

get_value(item= C=CC(=O)OCC1CCCO1 (stereo not drawn) , readout=activation) returns inactive

get_value(item= COc1c2occc2c(OC)c2c(=O)cc(C)oc12 , readout=activation) returns inactive

get_value(item= O=C1CCC(=O)N1Cl , readout=activation) returns inactive

get_value(item= CO[Si](CCCn1c(=O)n(CCC[Si](OC)(OC)OC)c(=O)n(CCC[Si](OC)(OC)OC)c1=O)(OC)OC , readout=activation) returns inactive
